Taken from a melting point compilation (Tetko et al.; mined from patent text by program, amines drawn as free bases though some values may be those of a salt).

Please go through the items and note down their melting point.

Name the reported melting point value associated with the molecule COc1ccc2cc(C(=O)C(C)Br)ccc2c1Br (stereo not drawn)
166 to 167 °C

Name the reported melting point value associated with the molecule C=C1C(NC(=O)C(F)(F)F)CC(OC)OC1C (stereo not drawn)
160 to 162 °C

Name the reported melting point value associated with the molecule COc1ccc(OC)c(C=CC(=O)C2C(=O)OC(=O)C(C(C)=O)=C2O)c1 (stereo not drawn)
194 to 195 °C

Name the reported melting point value associated with the molecule `CCCCCCCCCCCCCCCCCCOC[C@H](CO)OC(=O)NC`
68 to 69 °C

Name the reported melting point value associated with the molecule `COc1cc2c(=O)c(Cc3cccnc3)cn3c4cc(Br)ccc4c(=O)c(c1)c23`
247 to 249 °C

Name the reported melting point value associated with the molecule `CCCc1nn(-c2ccc(C(F)(F)F)cn2)cc1CCCOc1ccc(F)c(CC(=O)O)c1`
111 to 112 °C

Name the reported melting point value associated with the molecule COc1ccc(-c2ccc3c(C(=O)c4ccn5c4CSC5c4cccnc4)c[nH]c3c2)cc1 (stereo not drawn)
246 to 248 °C

Name the reported melting point value associated with the molecule `Cc1oc(-c2ccccc2)nc1COc1ccc(CCn2cc(CCC(=O)O)c(-c3ccccc3)n2)cc1`
85 to 86 °C

* * *

Please go through the items and note down their melting point.

Name the reported melting point value associated with the compound `CCN1C(=O)CCCc2ccc(Nc3ncc(Cl)c(Nc4c(C)cccc4C(=O)NC)n3)cc21`
210 to 212 °C

Name the reported melting point value associated with the compound `COc1cc2cc(-c3ccccc3)sc2c(Cl)c1Cl`
144 to 145 °C

Name the reported melting point value associated with the compound `COc1cccc(S(=O)(=O)N2CCc3cc(OCc4ccccc4)c(OC)cc3C2)c1`
124 to 125 °C

Name the reported melting point value associated with the compound `CC(C)(C)OC(=O)N[C@@H](Cc1ccccc1)[C@@H](O)[C@@H](O)C1CC1`
83 to 85 °C

Name the reported melting point value associated with the compound `O=C(O)c1ccc2c(ccn2Cc2cccc([N+](=O)[O-])c2)c1`
251 to 254 °C

Name the reported melting point value associated with the compound `O=C(c1c(Cl)cccc1Cl)N(C(=O)c1c(Cl)cccc1Cl)c1cc(-c2ccc(Cl)cc2)on1`
219 to 223 °C

Name the reported melting point value associated with the compound CC1NC(=O)NN=C1c1ccc(OCC(=O)NN)c(Cl)c1 (stereo unspecified)
252 to 254 °C

Name the reported melting point value associated with the compound `O=[N+]([O-])c1ccc(Cl)c(C2SCCS2)c1`
130 to 131 °C

Name the reported melting point value associated with the compound `ON=Cc1ccc(-c2ccc(O)cc2)cc1`
207 to 210 °C

Name the reported melting point value associated with the compound COc1ccc2c(c1)C(c1ccc(N)cc1)=NN(C(C)=O)C(C)C2 (stereo unspecified)
237 to 238 °C

Name the reported melting point value associated with the compound `CCOC(=O)c1cn(Cc2ccc(-c3ccccc3-c3nnn[nH]3)cc2)c2sc(CC)c(NC(C)=O)c2c1=O`
163 to 166 °C

Name the reported melting point value associated with the compound `O=C(CCCI)Nc1ccccc1`
138 to 139 °C

Name the reported melting point value associated with the compound `CCCC(=O)c1cc2ccccc2cc1C(=O)O`
109 °C

Name the reported melting point value associated with the compound `COCOc1cccc(F)c1C=NO`
102 to 104 °C

Name the reported melting point value associated with the compound `Cc1sc(C(=O)OCc2ccccc2)cc1NC(=O)NCc1ccccc1`
208 to 209 °C

Name the reported melting point value associated with the compound `O=C1c2cccc(Br)c2C(=O)N1CCCCCn1cncn1`
102 to 104 °C
